- System: Plasmodium berghei
- assay info: Screen against P. berghei liver stage (PbLuc), transformed with Luciferase, at 2uM
- Format: functional, HepG2
- assay conditions: tested at 2 uM
Out of some 68,000 compounds screened, about 2,700 (4%) showed an effect of 50% or more. The list comes from a sample in which strong results are over-represented; it also holds close analogues and randomly drawn compounds.

{"compound": "CCOc1ccccc1C(=O)N(C)C(C)c1ccc(S(C)(=O)=O)cc1 (centres undefined)", "units": "%", "INHIBITION": 91.01}
{"compound": "O=C1CCCC2=Nc3nonc3NC(c3ccc(Cl)cc3Cl)C12 (centres undefined)", "units": "%", "INHIBITION": -53.9}
{"compound": "CN(C1CCN(C(=O)NCCc2ccc(F)cc2F)CC1)S(C)(=O)=O", "units": "%", "INHIBITION": 8.56}
{"compound": "CCOc1cc2c(cc1CNC(Cc1cccs1)c1nccs1)OCO2 (centres undefined)", "units": "%", "INHIBITION": -52.9}
{"compound": "OC(CN1CCOCC1)c1ccc(Br)cc1 (centres undefined)", "units": "%", "INHIBITION": 36.23}
{"compound": "Cn1nc(Br)c2c(NCCCS(N)(=O)=O)ncnc21", "units": "%", "INHIBITION": -5.61}
{"compound": "O=C1CCCCCN1Cc1ncnn1Cc1c(F)cccc1Cl", "units": "%", "INHIBITION": 29.98}
{"compound": "O=C(NCc1cccnc1)[C@@H]1CC[C@@H]2[C@@H](CCN2c2ncc(F)cn2)O1", "units": "%", "INHIBITION": 12.7}
{"compound": "CC[S+](CC)[c-]1c(=O)[nH]c(=O)n(CCc2ccc(F)cc2)c1=O", "units": "%", "INHIBITION": 9.31}
{"compound": "CS(=O)(=O)N1CC2(CCN(C(=O)c3csnn3)CC2)c2ccccc21", "units": "%", "INHIBITION": 54.01}
{"compound": "CC(c1ccc(S(N)(=O)=O)cc1)N(C)C(=O)c1ccccc1I (centres undefined)", "units": "%", "INHIBITION": -28.49}
{"compound": "Cn1cccc1C(=O)N1CCC2(CC1)CN(S(C)(=O)=O)c1ccccc12", "units": "%", "INHIBITION": 38.64}
{"compound": "O=C1OCCN1Cc1ncnn1Cc1c(F)cccc1Cl", "units": "%", "INHIBITION": 59.94}
{"compound": "Cc1cnn(CC2CCCN2Cc2cc(C)no2)c1 (centres undefined)", "units": "%", "INHIBITION": -4.43}
{"compound": "CCC(CNC(=O)c1nc(=O)[nH][nH]1)Oc1cccc(F)c1 (centres undefined)", "units": "%", "INHIBITION": 6.92}
{"compound": "CS(=O)(=O)N1CC2(CCN(C(=O)c3ccncc3)CC2)c2ccccc21", "units": "%", "INHIBITION": 9.53}
{"compound": "CCCc1nccn1-c1ccc(C(O)CN2CCOCC2)cc1 (centres undefined)", "units": "%", "INHIBITION": 62}
{"compound": "O=S(=O)(C1CC1)N1C[C@H]2CCC[C@@]2(COc2ccccn2)C1", "units": "%", "INHIBITION": -3.87}
{"compound": "CCOc1ccccc1CNCC1CCN(CC(C)O)CC1 (centres undefined)", "units": "%", "INHIBITION": 21.43}
{"compound": "Cc1cccn2c(CNC(C)CCc3ccc(O)cc3)cnc12 (centres undefined)", "units": "%", "INHIBITION": -19.78}
{"compound": "O=C1[C@@H]2CN(C3CCOCC3)C[C@H]2CCN1CC1CC1", "units": "%", "INHIBITION": 27.65}
{"compound": "O=C(Nc1cc(C(F)(F)F)c[nH]c1=O)C1CCCNC1 (centres undefined)", "units": "%", "INHIBITION": -50.41}
{"compound": "COc1ccc(CNCC2CCN(CC(C)O)CC2)c2ccccc12 (centres undefined)", "units": "%", "INHIBITION": 7.54}
{"compound": "c1ccc(Sc2ccc3c(c2)OCO3)c(CNC2=NCCN2)c1", "units": "%", "INHIBITION": 33.59}
